This collection of values is drawn from ChEMBL document CHEMBL3259582.

# key: entry, value: pIC50
Biological target: Nuclear receptor ROR-alpha (Homo sapiens)
Sequence (P35398 whole entry): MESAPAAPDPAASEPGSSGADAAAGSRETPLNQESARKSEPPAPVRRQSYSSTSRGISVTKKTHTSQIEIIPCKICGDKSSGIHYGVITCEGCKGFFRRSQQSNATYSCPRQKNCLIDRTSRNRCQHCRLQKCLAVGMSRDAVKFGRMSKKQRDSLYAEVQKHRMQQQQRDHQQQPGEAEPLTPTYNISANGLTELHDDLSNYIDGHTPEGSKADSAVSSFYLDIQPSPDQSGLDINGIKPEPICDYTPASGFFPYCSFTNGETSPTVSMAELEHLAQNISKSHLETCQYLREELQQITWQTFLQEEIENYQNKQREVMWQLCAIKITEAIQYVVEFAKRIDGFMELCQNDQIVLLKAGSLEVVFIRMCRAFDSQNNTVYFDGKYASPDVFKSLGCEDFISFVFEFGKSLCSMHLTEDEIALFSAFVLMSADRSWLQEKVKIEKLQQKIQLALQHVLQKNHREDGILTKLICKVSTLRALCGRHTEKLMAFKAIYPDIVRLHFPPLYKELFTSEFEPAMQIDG
Test: Inverse agonist activity at human ROR-alpha1 expressed in HEK293 cells after 16 hrs by luciferase reporter gene assay
Type: cell-based
Conditions: read-out: IC50
pIC50: −log10 of the molar value.

Solved entries (count: 5):
structure-smiles-string: Cn1c(=O)c2ccccc2c2cc(C(O)(C(F)(F)F)C(F)(F)F)ccc21
pIC50: < 4.70
//
structure-smiles-string: CCn1c(=O)c2ccccc2c2cc(C(O)(C(F)(F)F)C(F)(F)F)ccc21
pIC50: < 4.70
//
structure-smiles-string: CCCCn1c(=O)c2ccccc2c2cc(C(O)(C(F)(F)F)C(F)(F)F)cc(OC)c21
pIC50: < 5.00
//
structure-smiles-string: CCCCn1c(=O)c2ccccc2c2cc(CO)ccc21
pIC50: < 4.70
//
structure-smiles-string: O=c1[nH]c2ccc(C(O)(C(F)(F)F)C(F)(F)F)cc2c2ccccc12
pIC50: < 4.70

Okay, now this compound:
[in] Entry under review: `CCCCCCCCCn1c(=O)c2ccccc2c2cc(C(O)(C(F)(F)F)C(F)(F)F)ccc21` . Reported pIC50?
[out] < 4.70
